System Under Test: human cyclin B-CDK1 (Homo sapiens)
Experimental Details: FlashPlate kinase assay, cyclin B-CDK1, Rb substrate
Test Context: recombinant cyclin B-CDK1, Rb phosphorylation, 1 μM ATP
pIC50: −log10 of the molar value.
Recorded Metric: pIC50

Smiles Notation: CN(C)C(C)(C)COc1ccc(Nc2nc(N)c(C(=O)c3cccc(C4CC4)c3)s2)cc1
Recorded Metric: pIC50
Measured Number: 5.41

[A] CCCc1cc(C(=O)c2sc(Nc3ccc(OC[C@@H](C)N(C)C)cc3)nc2N)ccc1O
[B] Nc1nc(Nc2ccc(OC[C@@H]3CCCN3)cc2)sc1C(=O)c1cccc(F)c1
[C] CCc1cccc(C(=O)c2sc(Nc3ccc(OCCN4CCCC4)cc3)nc2N)c1
List by increasing pIC50. Use the labels to give the ranking in the order requested.
C, B, A
(C: 5.52, B: 6.36, A: 6.62)

====

System Under Test: human cyclin D1-CDK4 (Homo sapiens)
Experimental Details: FlashPlate kinase assay, cyclin D1-CDK4, Rb substrate
Test Context: recombinant cyclin D1-CDK4, Rb phosphorylation, 1 μM ATP
Method: To determine inhibition of Cdk4, Cdk2 and Cdk1 activity, kinase assays were conducted using FlashPlate™ assays (NEN™-Life Science Products). FlashPlate assays were performed using recombinant human cyclin B-CDK1, human cyclin E-CDK2 or human cyclin D1-CDK4 complexes. […] The expression of the 62 Kd protein was under the control of an IPTG inducible promoter in an M15 E. coli strain. […] Purified Rb fusion protein stocks were quantitated for protein concentration, aliquoted, and stored at −70° C. […]
pIC50: −log10 of the molar value.
Recorded Metric: pIC50

# annotated cases, reported pIC50 shown
Compound: Cc1ccc(C(=O)c2sc(Nc3ccc(OCCN(C)C)cc3)nc2N)cc1F [Example 73]
pIC50: 7.00

Compound: CCCc1cc(C(=O)c2sc(Nc3ccc(OC4CCNC4)cc3)nc2N)ccc1O (stereo not shown) [Example 90, Acetic Acid]
pIC50: 7.37

[I] CCc1cccc(C(=O)c2sc(Nc3ccc(OCC(C)(C)N(C)C)cc3)nc2N)c1 [Example 61]
[II] CN(C)CCOc1ccc(Nc2nc(N)c(C(=O)c3cccc(Br)c3)s2)cc1 [Example 65]
Of I and II , which carries the smaller reported pIC50 figure? Answer by quoting the chosen item's label.
II

====

Test system: HCT116, a colorectal carcinoma cell line
Experimental Details: Tetrazolium dye proliferation assay (MTT assay)
Assay type: cell-based
Test Context: Homo sapiens, HCT-116, HCT116 cells, inhibition of cell proliferation
Recorded Metric: IC50 (nM)

Example entries begin here.
Compound: CC(COc1ccc(Nc2nc(N)c(C(=O)c3cccc(F)c3)s2)cc1)N(C)C (centres unmarked)
Recorded Metric: IC50
Measured Number: 436
//
Compound: Cc1ccc(C(=O)c2sc(Nc3ccc(OC[C@@H]4CCCN4C)cc3)nc2N)cc1F
Recorded Metric: IC50
Measured Number: 2070
//
Compound: CCc1ccc(C(=O)c2sc(Nc3ccc(OCCN4CCCC4)cc3)nc2N)cc1F
Recorded Metric: IC50
Measured Number: 3700
//
Compound: CCN1CCCC(Oc2ccc(Nc3nc(N)c(C(=O)c4cccc(C5CC5)c4)s3)cc2)C1 (centres unmarked)
Recorded Metric: IC50
Measured Number: 1720
//
Compound: CCc1cccc(C(=O)c2sc(Nc3ccc(OC[C@@H]4CCCN4C)cc3)nc2N)c1
Recorded Metric: IC50
Measured Number: 419
//
Compound: CN(C)CCOc1ccc(Nc2nc(N)c(C(=O)c3cccc(F)c3)s2)cc1
Recorded Metric: IC50
Measured Number: 520

[P] CCNCCOc1ccc(Nc2nc(N)c(C(=O)c3ccc(F)c(CC)c3)s2)cc1
[Q] CCNCCOc1ccc(Nc2nc(N)c(C(=O)c3cccc(C4CC4)c3)s2)cc1
Between P and Q , whose measured IC50 reads higher? Use the label to indicate which entry you chose.
P
(P: 2450 nM, Q: 738 nM)

====

System Under Test: human cyclin B-CDK1 (Homo sapiens, UniProt P06493)
Sequence (P06493 whole entry): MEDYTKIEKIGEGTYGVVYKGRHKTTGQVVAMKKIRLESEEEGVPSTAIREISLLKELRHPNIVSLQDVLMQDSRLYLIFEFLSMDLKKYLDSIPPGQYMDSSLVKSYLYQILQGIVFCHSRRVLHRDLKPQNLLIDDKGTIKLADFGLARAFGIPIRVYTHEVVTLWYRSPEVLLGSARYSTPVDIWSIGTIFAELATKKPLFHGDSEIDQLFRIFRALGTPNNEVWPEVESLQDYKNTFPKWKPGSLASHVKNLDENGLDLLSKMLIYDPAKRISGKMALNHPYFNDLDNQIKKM
Sequence (P14635 whole entry partner): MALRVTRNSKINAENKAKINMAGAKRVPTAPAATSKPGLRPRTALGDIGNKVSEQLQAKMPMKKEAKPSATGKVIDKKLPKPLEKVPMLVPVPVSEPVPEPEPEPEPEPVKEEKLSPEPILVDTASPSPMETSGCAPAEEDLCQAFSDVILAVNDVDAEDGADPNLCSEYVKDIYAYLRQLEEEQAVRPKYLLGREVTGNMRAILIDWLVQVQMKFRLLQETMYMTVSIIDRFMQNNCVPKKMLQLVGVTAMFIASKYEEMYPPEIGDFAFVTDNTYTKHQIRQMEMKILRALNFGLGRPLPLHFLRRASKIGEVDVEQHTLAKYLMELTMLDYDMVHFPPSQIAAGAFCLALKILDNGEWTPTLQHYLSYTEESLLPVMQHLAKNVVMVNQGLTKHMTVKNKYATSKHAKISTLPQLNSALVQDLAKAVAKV
Experimental Details: FlashPlate kinase assay, cyclin B-CDK1, Rb substrate
Test Context: recombinant cyclin B-CDK1, Rb phosphorylation, 1 μM ATP
Recorded Metric: IC50 (µM)

Example cases with answers are listed next.
Molecule: CCNCCOc1ccc(Nc2nc(N)c(C(=O)c3cccc(C4CC4)c3)s2)cc1
Unit Text: µM
IC50: 0.883

Molecule: CCN(CC)CCOc1ccc(Nc2nc(N)c(C(=O)c3cccc(OC)c3)s2)cc1
Unit Text: µM
IC50: 0.219

Molecule: CCN1CCCC(Oc2ccc(Nc3nc(N)c(C(=O)c4cccc(C5CC5)c4)s3)cc2)C1 (stereo not shown)
Unit Text: µM
IC50: 1.84

Molecule: COc1cccc(C(=O)c2sc(Nc3ccc(OCCN(C)C)cc3)nc2N)c1
Unit Text: µM
IC50: 2.49

[1] CCCc1cc(C(=O)c2sc(Nc3ccc(OCCN4CCCC4)cc3)nc2N)ccc1O
[2] CCCc1cc(C(=O)c2sc(Nc3ccc(OC4CCCN(CC)C4)cc3)nc2N)ccc1O (stereo not shown)
Consider entries 1 and 2 . Which has the numerically lower IC50? Answer with the label corresponding to your selection.
1

====

System Under Test: human cyclin B-CDK1 (Homo sapiens)
Experimental Details: FlashPlate kinase assay, cyclin B-CDK1, Rb substrate
Test Context: recombinant cyclin B-CDK1, Rb phosphorylation, 1 μM ATP
Protocol: To determine inhibition of Cdk4, Cdk2 and Cdk1 activity, kinase assays were conducted using FlashPlate™ assays (NEN™-Life Science Products). FlashPlate assays were performed using recombinant human cyclin B-CDK1, human cyclin E-CDK2 or human cyclin D1-CDK4 complexes. […] The expression of the 62 Kd protein was under the control of an IPTG inducible promoter in an M15 E. coli strain. […] Purified Rb fusion protein stocks were quantitated for protein concentration, aliquoted, and stored at −70° C. […]
pIC50: −log10 of the molar value.
Recorded Metric: pIC50

[A] CCCc1cc(C(=O)c2sc(Nc3ccc(OC[C@@H]4CCCN4C)cc3)nc2N)ccc1O [Example 115, Acetate]
[B] CN(C)CCOc1ccc(Nc2nc(N)c(C(=O)c3cccc(C#N)c3)s2)cc1
Param metric = pIC50; output whichever of A , B has the minimum value. # respond with the chosen item's label
B

[I] CCNCCOc1ccc(Nc2nc(N)c(C(=O)c3ccc(C)c(F)c3)s2)cc1
[II] CCCc1cc(C(=O)c2sc(Nc3ccc(OC4CCNC4)cc3)nc2N)ccc1O (centres unmarked)
[III] Cc1cccc(C(=O)c2sc(Nc3ccc(OCCN4CCCC4)cc3)nc2N)c1
Ordering: ascending pIC50. Order the labels as requested and list them.
III, I, II
(III: 5.97, I: 6.36, II: 6.64)

====

System Under Test: human cyclin D1-CDK4 (Homo sapiens)
Experimental Details: FlashPlate kinase assay, cyclin D1-CDK4, Rb substrate
Test Context: recombinant cyclin D1-CDK4, Rb phosphorylation, 1 μM ATP
Recorded Metric: IC50 (nM)

Previously resolved entries follow.
Compound: CCN1CCCC(Oc2ccc(Nc3nc(N)c(C(=O)c4ccc(C)c(F)c4)s3)cc2)C1 (centres unmarked) [Example 87]
System Under Test: human cyclin D1-CDK4 (Homo sapiens)
IC50, nM: 74
//
Compound: CCCc1cc(C(=O)c2sc(Nc3ccc(OC[C@@H](C)N(C)C)cc3)nc2N)ccc1O [Example 107, Acetic Acid]
System Under Test: human cyclin D1-CDK4 (Homo sapiens)
IC50, nM: 26
//
Compound: CCc1cccc(C(=O)c2sc(Nc3ccc(OC[C@@H]4CCCN4C)cc3)nc2N)c1 [Example 112]
System Under Test: human cyclin D1-CDK4 (Homo sapiens)
IC50, nM: 42
//
Compound: CCNCCOc1ccc(Nc2nc(N)c(C(=O)c3ccc4c(c3)OCO4)s2)cc1 [Example 133]
System Under Test: human cyclin D1-CDK4 (Homo sapiens)
IC50, nM: 29
//
Compound: CCc1cccc(C(=O)c2sc(Nc3ccc(OC[C@@H](C)N(C)C)cc3)nc2N)c1 [Example 63]
System Under Test: human cyclin D1-CDK4 (Homo sapiens)
IC50, nM: 80
//
Compound: Nc1nc(Nc2ccc(OCCN3CCCC3)cc2)sc1C(=O)c1cccc(F)c1 [Example 118, Acetic Acid]
System Under Test: human cyclin D1-CDK4 (Homo sapiens)
IC50, nM: 62

[I] CCCc1cc(C(=O)c2sc(Nc3ccc(OC4CCCN(CC)C4)cc3)nc2N)ccc1O (centres unmarked) [Example 88, Acetic Acid]
[II] CCN1CCC(Oc2ccc(Nc3nc(N)c(C(=O)c4ccc(C)c(F)c4)s3)cc2)C1 (centres unmarked) [Example 86]
// pick min by IC50: I , II Use the label to indicate which entry you chose.
I

====

System Under Test: human cyclin D1-CDK4 (Homo sapiens, UniProt P11802)
Sequence (P11802 whole entry): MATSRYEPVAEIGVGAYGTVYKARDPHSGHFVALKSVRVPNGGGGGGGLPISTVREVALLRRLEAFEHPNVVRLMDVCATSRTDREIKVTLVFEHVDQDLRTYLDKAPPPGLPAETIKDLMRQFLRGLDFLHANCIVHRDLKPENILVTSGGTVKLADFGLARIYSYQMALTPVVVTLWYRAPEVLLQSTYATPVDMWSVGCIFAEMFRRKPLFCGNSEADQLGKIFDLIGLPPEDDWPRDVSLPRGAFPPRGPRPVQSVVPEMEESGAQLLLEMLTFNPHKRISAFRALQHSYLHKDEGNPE
Sequence (P24385 whole entry partner): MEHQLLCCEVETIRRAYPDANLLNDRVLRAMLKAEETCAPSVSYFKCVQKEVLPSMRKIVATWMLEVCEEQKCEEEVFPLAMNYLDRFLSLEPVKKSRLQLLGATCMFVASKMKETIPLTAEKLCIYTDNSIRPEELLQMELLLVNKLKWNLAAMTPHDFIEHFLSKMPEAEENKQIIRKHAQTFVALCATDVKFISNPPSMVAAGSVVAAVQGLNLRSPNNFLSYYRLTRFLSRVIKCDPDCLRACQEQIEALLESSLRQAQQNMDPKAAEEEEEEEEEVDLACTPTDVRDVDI
Experimental Details: FlashPlate kinase assay, cyclin D1-CDK4, Rb substrate
Test Context: recombinant cyclin D1-CDK4, Rb phosphorylation, 1 μM ATP
Recorded Metric: IC50 (nM)

Examples with their reported IC50 follow.
Compound: CC(C)NCCOc1ccc(Nc2nc(N)c(C(=O)c3ccc4c(c3)OCCO4)s2)cc1
Recorded Metric: IC50
Measured Number: 45

Compound: CN(C)CCOc1ccc(Nc2nc(N)c(C(=O)c3cccc(F)c3)s2)cc1
Recorded Metric: IC50
Measured Number: 32

[I] Cc1ccc(C(=O)c2sc(Nc3ccc(OC[C@@H]4CCCN4C)cc3)nc2N)cc1F
[II] Cc1ccc(C(=O)c2sc(Nc3ccc(OC[C@@H](C)N(C)C)cc3)nc2N)cc1F
Identify the entry with the smaller IC50: I or II . # respond with the chosen item's label
I
(I: 63 nM, II: 92 nM)
